Please provide measured IC50 for the entries that follow.
- Tested on: HIV-1 gp160 (HXB2 strain) mediated cell/cell fusion
- ASSAY_SUMMARY: Cell/cell fusion assay (HOS hCXCR4/hCCR5/hCD4/pHIV-LTR-luciferase cells with HEK-293 cells expressing HIV-1 tat, rev, gp160), luciferase readout
- Format: cell-based
- PARTICULARS: Homo sapiens, HEK293, 24 h, read-out: Fusion assay (pIC50) (converted)
- Protocol: The complete coding sequences of HIV-1 tat (GenBank Accession No. X07861) and rev (GenBank Accession No. M34378) were cloned into pcDNA3.1 expression vectors containing G418 and hygromycin resistance genes, respectively. […] HEK-293 cells were harvested using enzyme-free cell dissociation buffer. The cells were resuspended in DMEM/F-12 media supplemented with 10% FCS and 1.5 ug/ml and counted. […]
One number for each entry, in nM.

CN(C)CCCn1c(CN(C)C2CCCc3cccnc32)nc2ccccc21 (stereo not drawn) [Example 15c] :: 16.6
CN1CC(Cn2c(CN(C)C3CCCc4cccnc43)nc3ccccc32)C1 (stereo not drawn) [Example 10e] :: 91.2

Here is the next item to consider.
Query string: // lookup IC50 | system=HIV-1 gp160 (HXB2 strain) mediated cell/cell fusion | key= CN1CCN(CCCn2c(CN(C)C3CCCc4cccnc43)nc3ccccc32)CC1 (stereo not drawn)
Result string: 166
